Cited source: patent US20120276102A1

Some binders, each annotated with its measured EC50 (read off the curve).
Biological target: T1, human IL-21R expressed on cells (human, UniProt Q9HBE5 20-538)
T1 construct: also called human IL-21R-BaF3; human IL-21R-TF1
T1 sequence (Q9HBE5 20-538 limits assumed): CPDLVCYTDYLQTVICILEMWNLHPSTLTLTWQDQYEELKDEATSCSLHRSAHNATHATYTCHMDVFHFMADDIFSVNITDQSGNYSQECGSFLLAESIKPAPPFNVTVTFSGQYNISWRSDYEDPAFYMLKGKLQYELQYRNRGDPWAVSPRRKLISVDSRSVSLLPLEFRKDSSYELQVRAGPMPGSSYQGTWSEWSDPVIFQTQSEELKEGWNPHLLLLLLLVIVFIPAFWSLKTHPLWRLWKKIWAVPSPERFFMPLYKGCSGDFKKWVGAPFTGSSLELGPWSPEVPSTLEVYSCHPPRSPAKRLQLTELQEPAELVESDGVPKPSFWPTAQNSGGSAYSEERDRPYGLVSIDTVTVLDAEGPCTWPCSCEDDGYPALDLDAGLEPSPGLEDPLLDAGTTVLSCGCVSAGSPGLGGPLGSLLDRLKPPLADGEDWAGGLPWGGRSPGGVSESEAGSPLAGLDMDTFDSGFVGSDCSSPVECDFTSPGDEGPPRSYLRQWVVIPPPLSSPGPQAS
Assay: cell-based ELISA on CHO cells transiently expressing human IL-21R; HRP anti-human IgG, A450
Property measured: EC50 (read off the curve)

AbA (antibody, V domains shown, Human IgG1/lambda, transiently expressed; also called VHP/VL2) VH: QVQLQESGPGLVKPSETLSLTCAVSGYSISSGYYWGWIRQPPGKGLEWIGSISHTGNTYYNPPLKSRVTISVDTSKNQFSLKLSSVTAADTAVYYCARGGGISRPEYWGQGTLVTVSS VL: SSELTQDPAVSVALGQTVRITCQGDSLRTYYASWYQQKPGQAPVLVIYGKHKRPSGIPDRFSGSSSGNTASLTITGAQAEDEADYYCVARSVVGNPHVLFGGGTQLTVL    ~0.5 nM
AbJ (antibody, IgG1, V domains shown, As for AbA: IgG1/lambda, CDR3 graft, residue limits derived; also called VH3/VLP) VH: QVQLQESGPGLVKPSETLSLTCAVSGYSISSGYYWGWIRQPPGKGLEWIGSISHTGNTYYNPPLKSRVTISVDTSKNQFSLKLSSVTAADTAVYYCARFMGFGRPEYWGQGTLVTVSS VL: SSELTQDPAVSVALGQTVRITCQGDSLRTYYASWYQQKPGQAPVLVIYGKHKRPSGIPDRFSGSSSGNTASLTITGAQAEDEADYYCNSRDSSGNPHVLFGGGTQLTVL    ~0.3 nM
AbF (antibody, IgG1, V domains shown, As for AbA: IgG1/lambda, CDR3 graft, residue limits derived; also called VHP/VL17) VH: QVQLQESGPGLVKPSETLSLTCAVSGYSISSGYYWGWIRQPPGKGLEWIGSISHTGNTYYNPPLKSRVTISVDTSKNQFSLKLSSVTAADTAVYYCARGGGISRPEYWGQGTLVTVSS VL: SSELTQDPAVSVALGQTVRITCQGDSLRTYYASWYQQKPGQAPVLVIYGKHKRPSGIPDRFSGSSSGNTASLTITGAQAEDEADYYCSTRSRKGNPHVLFGGGTQLTVL    ~0.5 nM
AbC (antibody, IgG1, V domains shown, As for AbA: IgG1/lambda, CDR3 graft, residue limits derived; also called VHP/VL11) VH: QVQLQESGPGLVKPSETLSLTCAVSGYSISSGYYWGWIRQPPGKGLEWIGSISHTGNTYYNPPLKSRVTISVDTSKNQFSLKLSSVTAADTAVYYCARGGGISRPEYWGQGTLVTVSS VL: SSELTQDPAVSVALGQTVRITCQGDSLRTYYASWYQQKPGQAPVLVIYGKHKRPSGIPDRFSGSSSGNTASLTITGAQAEDEADYYCSSRSRHGNPHVLFGGGTQLTVL    ~0.7 nM
AbI (antibody, IgG1, V domains shown, As for AbA: IgG1/lambda, CDR3 graft, residue limits derived; also called VHP/VL24) VH: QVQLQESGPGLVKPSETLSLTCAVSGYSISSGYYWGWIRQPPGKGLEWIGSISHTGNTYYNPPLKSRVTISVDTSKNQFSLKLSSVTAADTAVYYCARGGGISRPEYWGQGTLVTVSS VL: SSELTQDPAVSVALGQTVRITCQGDSLRTYYASWYQQKPGQAPVLVIYGKHKRPSGIPDRFSGSSSGNTASLTITGAQAEDEADYYCIARSNKGNPHVLFGGGTQLTVL    ~0.9 nM
